quantity name: melting point (°C)

Below, 10 compounds whose answers are already recorded.
| compound | experimental result |
| --- | --- |
| Cc1ccc(C(C)C)c(O)c1 | 51 |
| Nc1ccccc1-c1ccccc1 | 51.5 |
| CCCCCCCCCCCBr | -9 |
| ICCCCI | 6 |
| ClCc1ccccc1 [benzyl chloride] | -43 |
| Nc1cccc(F)c1C(=O)O | 166 |
| CCCCCCCCCCOc1ccc(C(=O)O)cc1 | 97 |
| CC(C)C#N [isobutyronitrile] | -72 |
| O=[N+]([O-])c1ccccc1CO | 72 |
| ClCCBr | -17 |

a: NC(=O)Cc1ccc(O)cc1 [4-hydroxyphenylacetamide]
b: C1=CC2CCC1C2
c: CC(=O)OC1CCC2(C)C3CCC4=C(CCC4(C)C(C)OC(C)=O)C3CCC2(C)C1 (stereo unspecified)
d: COC(=O)c1ccccc1 [methyl benzoate]
e: CCCCNC(=S)NCCCC
Kindly order the items shown according to melting point, from the highest value down. Answer by listing the labels in the requested order.
a, c, e, b, d

P: Cc1ccc(C(=O)O)cc1C
Q: COC(=O)n1ccc(C)n1 [methyl 3-methyl-1H-pyrazole-1-carboxylate]
Of P versus Q , which is the one with smaller reported melting point? Record your answer as the label of the chosen record.
Q
(Q: 33 °C, P: 166 °C)

a: Cc1c(C2(c3cc(C(C)C)c(O)c(Br)c3C)OS(=O)(=O)c3ccccc32)cc(C(C)C)c(O)c1Br
b: CC(=O)c1cccc(C(C)=O)c1
Of a versus b , which is the one with smaller reported melting point? Record your answer as the label of the chosen record.
b
(b: 36 °C, a: 201 °C)
